Numbers sourced from the RNAGym collection of RNA variant scans (doi:10.1073/pnas.2313332121).

B1: TPR 5TU (parent)
chain: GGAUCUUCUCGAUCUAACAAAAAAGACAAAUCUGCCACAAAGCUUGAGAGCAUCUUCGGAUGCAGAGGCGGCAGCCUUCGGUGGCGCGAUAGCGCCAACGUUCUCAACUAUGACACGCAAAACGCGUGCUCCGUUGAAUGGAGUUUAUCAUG

Variants of: B1
Experiment: polymerase ribozyme fitness, log enrichment relative to wild type (log ratio); higher = more active; in vitro selection for triplet polymerase activity
Variants at the floor of the assay were thinned out.
reported.endpoint: polymerase ribozyme fitness (log ratio)

See these solved cases before continuing.
{"mutation.name": "C32A A89C C95A", "polymerase ribozyme fitness (log ratio)": "≤ -4.2"}
{"mutation.name": "C14A A37U C75G G94A A113G C114G C149A", "polymerase ribozyme fitness (log ratio)": "≤ -4.2"}
{"mutation.name": "U15A A47C G48C G58C C125U G140A", "polymerase ribozyme fitness (log ratio)": "≤ -4.2"}

polymerase ribozyme fitness (log ratio) for C14G C18U A52G G81U G92A C131G is ≤ -4.2

polymerase ribozyme fitness (log ratio) for C5U G84A C95A is 0.351
